Value source: ChEMBL document CHEMBL1138849

targetEntity: Glutathione reductase, mitochondrial (Homo sapiens, UniProt P00390)
Sequence (P00390 whole entry): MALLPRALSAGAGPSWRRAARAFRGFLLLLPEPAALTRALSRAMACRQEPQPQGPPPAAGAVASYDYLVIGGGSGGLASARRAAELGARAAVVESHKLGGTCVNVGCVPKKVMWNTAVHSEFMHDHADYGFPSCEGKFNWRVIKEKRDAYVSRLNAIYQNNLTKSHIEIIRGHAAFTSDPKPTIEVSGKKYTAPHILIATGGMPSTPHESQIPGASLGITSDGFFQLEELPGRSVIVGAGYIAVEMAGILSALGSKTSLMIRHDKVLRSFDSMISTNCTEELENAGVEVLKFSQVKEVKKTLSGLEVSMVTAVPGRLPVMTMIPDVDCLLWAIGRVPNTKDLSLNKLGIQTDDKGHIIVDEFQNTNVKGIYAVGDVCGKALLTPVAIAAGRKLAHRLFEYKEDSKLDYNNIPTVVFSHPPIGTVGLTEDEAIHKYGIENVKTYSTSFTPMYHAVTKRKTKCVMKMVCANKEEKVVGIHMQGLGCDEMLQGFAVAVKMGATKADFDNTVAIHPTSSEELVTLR
procedureDetails: Inhibitory concentration against human glutathione reductase in the presence of 200 uM exogenous NADP
pIC50: −log10 of the molar value.
parameter: pIC50

[[record]]
molecularstring = "CC1=C(CCCCCC(=O)O)C(=O)c2ccccc2C1=O"
parameter = "pIC50"
valuemeasured = 5.57


* * *

This listing pairs compounds with measured IC50.
targetEntity: Glutathione reductase, mitochondrial (Homo sapiens, UniProt P00390)
procedureDetails: Inhibitory concentration against human glutathione reductase
parameter: IC50

[[record]]
compound = "CC1=C(CCCCc2nnnn2CCC#N)C(=O)c2ccccc2C1=O"
parameter = "IC50"
valuemeasured = "27 µM"

[[record]]
compound = "CC1=C(CCCCCC(=O)O)C(=O)c2ccccc2C1=O"
parameter = "IC50"
valuemeasured = "3.2 µM"

[[record]]
compound = "CC1=C(CCCCC(=O)NCCC#N)C(=O)c2ccccc2C1=O"
parameter = "IC50"
valuemeasured = "22.7 µM"

[[record]]
compound = "CN(C)c1ccc2nc3ccc(=[N+](C)C)cc-3sc2c1 [METHYLENE BLUE ANHYDROUS]"
parameter = "IC50"
valuemeasured = "16 µM"


* * *

targetEntity: Glutathione reductase, mitochondrial (Homo sapiens, UniProt P00390)
procedureDetails: Inhibitory concentration against human glutathione reductase (In presence of glutathione disulfide)
parameter: Ki (µM)

[[record]]
molecularstring = "CC1=CC(=O)c2ccccc2C1=O"
valuemeasured = 12.1

